# system_name: T1, rhNav1.7α+β1-β2-β3 (rhesus monkey α subunit with human β …)
# T1 construct: P2A cleaves it into α, β1, β2, β3; also called rhNav1.7-beta1-beta2-beta3
# test_name: binding FACS, CHO FlpIn cells
EC50 for assorted binders
Entry rule: numbers only, all in nM.

Observe how each entry below is paired with its result.
[
  {
    "binder": "F010300900 (VHH, vs F0103275B05: S27P, I28V, S33R, N53P, S56D, N93R, A94W, T101I) VHH: EVQLVESGGGLVQPGGSLRLSCAASGPVFNINRMAWYRRAPGKQRELVASSTPGGDTNYADSVKGRFTISRDNAKRVYLQMNSLTPEDTAVYYCRWLLQPSIYDISRIYWGQGTLVTVSS",
    "EC50 (nM)": 25
  },
  {
    "binder": "F010300880 (VHH, vs F0103275B05: S27P, I28V, S33R, N53P, S56D, N93R, A94W) VHH: EVQLVESGGGLVQPGGSLRLSCAASGPVFNINRMAWYRRAPGKQRELVASSTPGGDTNYADSVKGRFTISRDNAKRVYLQMNSLTPEDTAVYYCRWLLQPSIYDISRTYWGQGTLVTVSS",
    "EC50 (nM)": 26
  },
  {
    "binder": "F010301000 (VHH, vs F0103275B05: S27P, I28V, S33R, S50Y, N53P, S56D, T101I) VHH: EVQLVESGGGLVQPGGSLRLSCAASGPVFNINRMAWYRRAPGKQRELVAYSTPGGDTNYADSVKGRFTISRDNAKRVYLQMNSLTPEDTAVYYCNALLQPSIYDISRIYWGQGTLVTVSS",
    "EC50 (nM)": 40
  }
]

Supply reported EC50 belonging to this binder: F010300796 (VHH, vs F0103275B05: S27P, I28V, S33R, S50Y, N53P, S56D) VHH: EVQLVESGGGLVQPGGSLRLSCAASGPVFNINRMAWYRRAPGKQRELVAYSTPGGDTNYADSVKGRFTISRDNAKRVYLQMNSLTPEDTAVYYCNALLQPSIYDISRTYWGQGTLVTVSS
44

Each recorded value in this set is attributed to patent US20240002497A1.
